Hello, the source for this data is PubChem BioAssay (EPA / NIEHS), in case you need it.

- Read-out: Vascular cell adhesion molecule 1 (VCAM1), VCAM1 (gene 7412)
- testMethodNotes: BSK_MyoF_VCAM1: BioMAP Diversity Plus: MyoF Assay for Vascular cell adhesion molecule 1 (VCAM1) Biomarker Activity (AID 2284231)
- conditionLabel: primary human lung fibroblasts
The source made the active and inactive calls. How the source made its calls: active means hit-call score of the fitted dose curve at least 0.9, where 1 is the maximum; inactive means score below 0.9.
Return exactly one item of 1 (yes) for active, 0 (no) for inactive

Example entries and their recorded answers appear below.
molecule | qualitativeLabel
O=C(O)CCC(F)(F)C(F)(F)C(F)(F)C(F)(F)C(F)(F)C(F)(F)C(F)(F)F | 0 (no)
NS(=O)(=O)C(F)(F)C(F)(F)C(F)(F)C(F)(F)C(F)(F)C(F)(F)F | 0 (no)
C[Si](Cl)(Cl)CCC(F)(F)C(F)(F)C(F)(F)C(F)(F)C(F)(F)C(F)(F)F | 0 (no)
O=C=Nc1cccc2c(N=C=O)cccc12 | 0 (no)
OC(O)C(F)(F)C(F)(F)F | 0 (no)
CO[Si](C)(CCC(F)(F)C(F)(F)C(F)(F)C(F)(F)C(F)(F)C(F)(F)F)OC | 0 (no)
O=C(O)C(F)(F)C(F)(F)C(F)(F)C(F)(F)C(F)(F)C(F)(F)C(F)F | 0 (no)
Nc1cc([N+](=O)[O-])cc(Cl)c1O | 0 (no)

Q: Please share the test call associated with CC(C)CCCC(C)CCO (centres undefined) .
Result: 1 (yes)

Q: What outcome does the record of this test show for NC(=O)C(F)(F)C(F)(F)C(F)(F)C(F)(F)C(F)(F)C(F)(F)C(F)(F)F ?
Result: 0 (no)

###

- testMethodNotes: ATG_PXRE_CIS: Attagene CIS-FACTORIAL HepG2 Assay for human Pregnane X Receptor Element (PXRE) (AID 2282957)
- conditionLabel: HepG2 Attagene CIS-FACTORIAL PXRE reporter, mRNA; actives raise or lower the signal
Activity calls are given as the source filed them. The calls were made as follows: active = hit-call score of the fitted dose curve at least 0.9, where 1 is the maximum; inactive = score below 0.9.
measuredAttribute: AC50

compound | AC50
NC(=O)C(F)(F)C(F)(F)C(F)(F)F | inactive
CCCCCC/C=C/CCCCCCCC(=O)O | inactive
Oc1ccc(C2(c3ccc(O)c(C4CCCCC4)c3)CCCCC2)cc1C1CCCCC1 | 0.175 µM (active)
CC(=O)c1ccccc1N | inactive
O=C1C=CC(=O)N1c1ccc(Cc2ccc(N3C(=O)C=CC3=O)cc2)cc1 | 26.7 µM (active)

Q: Reported AC50, compound CC(C)(C)c1cc(Cc2cc(C(C)(C)C)c(O)c(C(C)(C)C)c2)cc(C(C)(C)C)c1O : ____
Result: 0.513 µM (active)

Q: I am curious: what AC50 value has been reported for CCN(CC)c1ccc(C=O)c(O)c1 ?
Result: inactive

Q: Return reported AC50; argument: COc1ccccc1C=O
Result: inactive

Q: Which AC50 is listed for Cc1cnccn1 ?
Result: inactive

Q: Consider the compound shown here: O=S(=O)(OCC(F)(F)F)C(F)(F)C(F)(F)C(F)(F)C(F)(F)F What is its recorded AC50?
Result: inactive

Q: Looking for the measured AC50 of CC(O)C#CC(C)O (configuration not stated) , can you help?
Result: 148 µM (active)

Q: # get_value(readout='AC50', item= CC1=CCC2C(=O)OC(=O)C2C1 (configuration not stated) )
Result: inactive

Q: Entry CC(C)(C)c1cc(CCC(=O)OCC(COC(=O)CCc2cc(C(C)(C)C)c(O)c(C(C)(C)C)c2)(COC(=O)CCc2cc(C(C)(C)C)c(O)c(C(C)(C)C)c2)COC(=O)CCc2cc(C(C)(C)C)c(O)c(C(C)(C)C)c2)cc(C(C)(C)C)c1O : reported AC50 = ?
Result: 21.3 µM (active)

Q: Which value of AC50 has been reported for OCC(F)(F)C(F)(F)C(F)(F)CO in the records?
Result: inactive

Q: Need AC50 of O=C(Cl)C(F)(F)C(F)(F)C(F)(F)C(F)(F)C(F)(F)C(F)(F)C(F)(F)F , thanks.
Result: inactive

Q: So what's the measured AC50 for this one? C[C@]12CC[C@H]3C(=CCc4cc(O)ccc43)[C@@H]1CCC2=O
Result: 26.6 µM (active)

Q: // lookup AC50 for N#CCCOCCC#N
Result: inactive

Q: # AC50 lookup, item O=C(O)C(F)(F)OC(F)(F)C(F)(F)OC(F)(F)C(F)(F)OC(F)(F)F
Result: inactive

Q: Using the record for CCc1cccc(C)c1N(C(=O)C(=O)O)C(C)COC (configuration not stated) , report its AC50.
Result: inactive

Q: Param item = C=C(C)CCCC ; retrieve measured AC50.
Result: inactive

Q: What does the data say about its AC50? Entry: OCCC(O)CO (configuration not stated)
Result: inactive

Q: // lookup AC50 for O=S(=O)(O)CCC(F)(F)C(F)(F)C(F)(F)C(F)(F)F
Result: inactive

Q: Which measured AC50 value corresponds to CCCCCCCCCCCC(=O)Cl ?
Result: inactive

Q: I'd like to know its AC50. The compound in question is CCCCCCCCCc1ccc(OCCO)cc1
Result: 0.64 µM (active)

Q: Fill in the blank: the reported AC50 of COCCC(=O)OC is ____.
Result: inactive

###

- testMethodNotes: ACEA_ER_AUC_viability: ACEA Biosciences xCELLigence Real-Time Cell Analysis on Estrogen Receptor Agonism for Viability (AID 2283782);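 further: continuous compound exposure with impedance area under curve over 80 h; hit means loss of impedance signal meaning reduced cell growth or viability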
Results filed as inconclusive are left out. Active and inactive are the calls of the source. Rule for the calls: active = hit-call score of the fitted dose curve at least 0.9, where 1 is the maximum; inconclusive = response in the unintended direction; inactive = score below 0.9.
Valid outcomes are listed here; reply with one: TRUE (active), FALSE (inactive)

As a guide, the following entries are already answered.
compound | qualitativeLabel
CCCCCCCCn1sc(Cl)c(Cl)c1=O | TRUE
O=C(O)C(F)(F)C(F)(F)C(F)(F)OC(F)(C(F)(F)F)C(F)(F)F | FALSE
CCCCCCCCCCCCCCCCC | FALSE
OCC(F)(F)C(F)(F)C(F)(F)CO | FALSE
CC(C)(C)C(=O)C1C(=O)c2ccccc2C1=O | TRUE

Q: Please share the test call associated with CCCCCCCCCc1ccc(OCCO)cc1 .
Result: TRUE

Q: What did this assay record as the result for O=C(O)C(F)(F)C(F)(F)C(F)(F)C(=O)O ?
Result: FALSE

Q: Record request — test call for CC(O)C#CC(C)O (centres undefined)
Result: TRUE

Q: // return assay outcome for O=S(=O)(O)CCC(F)(F)C(F)(F)C(F)(F)C(F)(F)F
Result: FALSE

###

- testedSystem: Cellular tumor antigen p53 (Homo sapiens) (UniProt P04637)
- Sequence (P04637 whole entry, looked up): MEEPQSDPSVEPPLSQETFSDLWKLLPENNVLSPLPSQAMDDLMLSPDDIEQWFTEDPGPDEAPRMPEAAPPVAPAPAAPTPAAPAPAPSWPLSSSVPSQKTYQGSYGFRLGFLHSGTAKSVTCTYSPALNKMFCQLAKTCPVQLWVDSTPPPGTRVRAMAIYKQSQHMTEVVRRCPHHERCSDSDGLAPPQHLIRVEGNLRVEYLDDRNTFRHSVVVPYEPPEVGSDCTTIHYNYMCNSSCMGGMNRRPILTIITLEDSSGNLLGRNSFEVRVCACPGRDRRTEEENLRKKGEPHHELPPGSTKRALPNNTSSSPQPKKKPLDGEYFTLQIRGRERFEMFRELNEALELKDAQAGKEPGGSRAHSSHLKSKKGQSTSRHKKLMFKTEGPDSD
- testMethodNotes: ATG_p53_CIS: Attagene CIS-FACTORIAL HepG2 Assay for human p53 Transcription Factor (AID 2282994)
- conditionLabel: HepG2 p53 cis-element reporter, Attagene mRNA; actives raise or lower the signal
Calls of active or inactive are those of the source. Rule for the calls: active = hit-call score of the fitted dose curve at least 0.9, where 1 is the maximum; inactive = score below 0.9.
Please state which outcome applies, choosing from active, inactive

Here are 6 molecules together with their reported answers.
molecule | qualitativeLabel
CCOC(=O)CCC(C)=O | inactive
C=C(C)CCCC | inactive
CC(C)OC=O | inactive
CN(C(=O)C(F)(F)C(F)(F)C(F)(F)F)[Si](C)(C)C | inactive
Cc1ccc(S(=O)(=O)C(I)I)cc1 | active
CC(=O)c1ccccc1N | inactive

Q: Which outcome was entered for the molecule Cc1ccc([N+](=O)[O-])c(C)c1 in this test?
Result: inactive

Q: Please indicate how the test categorized CCCCCCCCCCCC(=O)Cl .
Result: inactive

Q: // outcome(item) with item = CC1=CCC2C(=O)OC(=O)C2C1 (centres undefined)
Result: inactive

Q: Test call, this molecule: NC(=O)C(F)(F)C(F)(F)C(F)(F)C(F)F
Result: inactive

Q: What did this assay record as the result for CCCC(=O)OCC(COC(=O)CCC)OC(=O)CCC ?
Result: active

Q: Dear colleague, could you share the recorded outcome for CC(=O)CCC(C)C when you have a moment?
Result: inactive

###

- Read-out: Plasminogen activator inhibitor-1 (PAI1), SERPINE1 (gene 5054)
- testMethodNotes: BSK_BE3C_PAI1: BioMAP Diversity Plus: BE3C Assay for Plasminogen activator inhibitor-1 (PAI1) Biomarker Activity (AID 2283037)
- conditionLabel: primary human bronchial epithelial cells; actives raise or lower the signal
Active and inactive are the calls of the source. Rule for the calls: active = hit-call score of the fitted dose curve at least 0.9, where 1 is the maximum; inactive = score below 0.9.
The reply should name one outcome from True (active), False (inactive)

// below: answered compounds
molSmiles | qualitativeLabel
C[C@]12CC[C@H]3C(=CCc4cc(O)ccc43)[C@@H]1CCC2=O | False
NC(=O)C(F)(F)C(F)(F)C(F)(F)C(F)(F)C(F)(F)C(F)(F)C(F)(F)F | False
O=C(Cl)C(F)(F)C(F)(F)C(F)(F)C(F)(F)C(F)(F)C(F)(F)C(F)(F)F | False
OCCCCC(F)(F)C(F)(F)C(F)(F)C(F)(F)F | False
OC(O)C(F)(F)C(F)(F)F | False

Please turn your attention to the following entry.
Q: What call does the record list for O=C1C=CC(=O)N1c1ccc(Cc2ccc(N3C(=O)C=CC3=O)cc2)cc1 ?
Result: True
